system: apoE expression in human CCF-STTG1 astrocytoma cells; assay: ApoE ELISA on conditioned medium of human CCF-STTG1 astrocytoma cells; assay type: cell-based; settings: 10 μM compound, 24 hours, normalized to DMSO treated cells
reported_property: ApoE (ng/ml) Normalized for Cell Count and Vehicle Treatment (ng/mL)
Number in ng/mL, nothing else.

The following molecules have reported results that may help.
molecule	reading_unit	data_value
CN(C)C(c1ccccc1)(c1ccccc1)c1ccccc1	ng/mL	0.92
COc1ccc(C(c2ccccc2)(c2ccccc2)N(C)C)cc1	ng/mL	0.65
c1ccc(C(NCC2CCCCC2)(c2ccccc2)c2ccccc2)cc1	ng/mL	0.49

## Input Name the recorded ApoE (ng/ml) Normalized for Cell Count and Vehicle Treatment for "CN(C)C(c1ccccc1)(c1ccccc1)c1ccc2ccccc2c1" .
## Output 0.65

## Input Consider next the molecule "c1ccc(C(c2ccccc2)(c2ccc3ccccc3c2)N2CCOCC2)cc1" in the same way.
## Output 0.54

## Input Continue with "c1ccc(C(c2ccccc2)(c2ccc3ccccc3c2)N2CCCC2)cc1"
## Output 0.51

## Input Same read-out for "CCN(CC)C(c1ccccc1)(c1ccccc1)c1ccc(OC)cc1" ?
## Output 0.83

## Input Now give it for "CC(C)CNC(c1ccccc1)(c1ccccc1)c1ccc2ccccc2c1" too.
## Output 0.50

## Input Next record, please: CCC(C)NC(c1ccccc1)(c1ccccc1)c1ccc2ccccc2c1 (stereo not drawn)
## Output 0.34

----------
test system: apoE expression in human CCF-STTG1 astrocytoma cells; assay: ApoE ELISA on conditioned medium of human CCF-STTG1 astrocytoma cells; format: cell-based; conditions: 10 μM compound, 24 hours
Label key: 1 means Inhibition Percentage of ApoE Expression under 50%; 0 means Inhibition Percentage of ApoE Expression of 50% or more.

compound	tested_system	label_class
CCC(C)NC(c1ccccc1)(c1ccccc1)c1ccc2ccccc2c1 (centres unmarked)	apoE expression in human CCF-STTG1 astrocytoma cells	0

## Input Dear colleague, could you confirm whether Inhibition Percentage of ApoE Expression of "CCN(CC)C(c1ccccc1)(c1ccccc1)c1ccc(OC)cc1" falls below 50%? Thanks.
## Output 1

## Input Also "CN(C)C(c1ccccc1)(c1ccccc1)c1ccccc1" , if possible.
## Output 1

These data points were gathered from patent US8633195B1.
